# target: T1, CD3 epsilon homodimer protein (UniProt P07766 23-126)
# T1 construct: also called CD3 (CD3 epsilon)
# T1 sequence (P07766 23-126): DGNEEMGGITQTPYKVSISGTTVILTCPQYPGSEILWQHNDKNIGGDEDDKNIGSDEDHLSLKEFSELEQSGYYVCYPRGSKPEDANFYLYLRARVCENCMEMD
# test method notes: SPR, antibody over immobilised CD3e homodimer;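 further: SPR at 25 °C with CD3 epsilon homodimer amine-coupled to a CM4 sensor chip and antibody flowed over as analyte in HBS-EP+ running buffer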
Listing: KD ratio to GLS3000 of selected binders
reported endpoint: KD ratio to GLS3000

- CE115HA000/GLS3000 L27bS (antibody, IgG1, name in Kabat numbering, V domains shown, one-arm IgG1) VH: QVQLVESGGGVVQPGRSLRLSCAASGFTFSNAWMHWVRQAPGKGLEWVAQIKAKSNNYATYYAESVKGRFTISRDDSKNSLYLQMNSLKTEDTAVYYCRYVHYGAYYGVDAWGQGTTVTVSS VL: DIVMTQSPLSLPVTPGEPASISCRSSQSSVHSNRNTYLHWYQQKPGQAPRLLIYKVSNRFSGVPDRFSGSGSGTDFTLKISRVEAEDVGVYYCGQGTQVPYTFGQGTKLEIK: 0.9
- CE115HA000/GLS3000 H34L (antibody, IgG1, name in Kabat numbering, V domains shown, one-arm IgG1) VH: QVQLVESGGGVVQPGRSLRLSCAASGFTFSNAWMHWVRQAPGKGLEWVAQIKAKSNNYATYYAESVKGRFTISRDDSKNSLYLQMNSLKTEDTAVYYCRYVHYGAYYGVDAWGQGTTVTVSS VL: DIVMTQSPLSLPVTPGEPASISCRSSQSLVHSNRNTYLLWYQQKPGQAPRLLIYKVSNRFSGVPDRFSGSGSGTDFTLKISRVEAEDVGVYYCGQGTQVPYTFGQGTKLEIK: 1.03
- CE115HA000/GLS3000 V27cI (antibody, IgG1, name in Kabat numbering, V domains shown, one-arm IgG1) VH: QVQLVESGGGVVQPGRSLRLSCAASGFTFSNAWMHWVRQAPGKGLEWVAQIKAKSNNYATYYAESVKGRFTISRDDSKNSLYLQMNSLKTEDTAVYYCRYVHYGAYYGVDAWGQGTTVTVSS VL: DIVMTQSPLSLPVTPGEPASISCRSSQSLIHSNRNTYLHWYQQKPGQAPRLLIYKVSNRFSGVPDRFSGSGSGTDFTLKISRVEAEDVGVYYCGQGTQVPYTFGQGTKLEIK: 1.03
